# maps each entry to its Papp 1 (PAMPA)
Test: Parallel artificial membrane permeability assay (PAMPA)
Format: in vitro ADME
Details: pH 7.4, replicate 1
Description: Compound Papp values were determined by normalizing the experimental compound absorbance to the compounds’ absorbances at equilibrium, membrane porosity, buffer volume, and time (s). Two or more replicate assays were obtained on separate days for each pH.
MEASURED ATTRIBUTE: Papp 1 (PAMPA) (cm/s)

1) CC(=NOCc1ccccc1C)c1c(C)cc(=O)n(O)c1O	3.11e-06
2) CC(=NOCc1ccc(Cl)cc1)c1c(C)cc(=O)n(O)c1O	2.99e-07
3) CC(=NOCc1ccc(C(F)(F)F)cc1)c1c(C)cc(=O)n(O)c1O	2.29e-06
4) CC(=NOCc1ccc(C)cc1)c1c(C)cc(=O)n(O)c1O	5.13e-07
5) CC(=NOCc1ccc(F)c(F)c1)c1c(C)cc(=O)n(O)c1O	1.46e-06
6) CC(=NOCc1ccc2ccccc2c1)c1c(C)cc(=O)n(O)c1O	1.71e-06
7) CC(=NOCc1ccc(Br)cc1)c1c(C)cc(=O)n(O)c1O	1.61e-06
8) CC(=NOCc1cccc(Br)c1)c1c(C)cc(=O)n(O)c1O	4.9e-07
9) CC(=NOCc1cc(F)ccc1F)c1c(C)cc(=O)n(O)c1O	1.13e-06

----------
Assay: Parallel artificial membrane permeability assay (PAMPA)
Assay type: in vitro ADME
Conditions: FeSSIF pH 5, replicate 2
Method: Compound Papp values were determined by normalizing the experimental compound absorbance to the compounds’ absorbances at equilibrium, membrane porosity, buffer volume, and time (s). Two or more replicate assays were obtained on separate days for each pH.
MEASURED ATTRIBUTE: Papp 2 (PAMPA)

1) CC(=NOCc1cc(F)ccc1F)c1c(C)cc(=O)n(O)c1O	24.2 ×10⁻⁶ cm/s
2) CC(=NOCc1ccccc1Br)c1c(C)cc(=O)n(O)c1O	50 ×10⁻⁶ cm/s
3) CC(=NOCc1ccccc1C)c1c(C)cc(=O)n(O)c1O	31.5 ×10⁻⁶ cm/s
4) CC(=NOCc1ccc(OCc2ccc(C(C)(C)C)cc2)cc1)c1c(C)cc(=O)n(O)c1O	9.19 ×10⁻⁶ cm/s
5) CC(=NOCc1ccc(F)cc1F)c1c(C)cc(=O)n(O)c1O	50.1 ×10⁻⁶ cm/s
6) CC(=NOCc1cccc(Br)c1)c1c(C)cc(=O)n(O)c1O	20.9 ×10⁻⁶ cm/s
7) CC(=NOCc1ccc(F)c(F)c1)c1c(C)cc(=O)n(O)c1O	26.1 ×10⁻⁶ cm/s
8) CC(=NOCc1ccc(Cl)cc1)c1c(C)cc(=O)n(O)c1O	17.6 ×10⁻⁶ cm/s
9) CC(=NOCc1ccc(C(F)(F)F)cc1)c1c(C)cc(=O)n(O)c1O	13.2 ×10⁻⁶ cm/s
10) CC(=NOCc1ccc(C)cc1)c1c(C)cc(=O)n(O)c1O	5.56 ×10⁻⁶ cm/s
11) CC(=NOCc1cccc(Cl)c1)c1c(C)cc(=O)n(O)c1O	78.8 ×10⁻⁶ cm/s
12) COc1ccc(CON=C(C)c2c(C)cc(=O)n(O)c2O)cc1OC	55.5 ×10⁻⁶ cm/s
13) CC(=NOCc1cccc(F)c1)c1c(C)cc(=O)n(O)c1O	17.4 ×10⁻⁶ cm/s
14) CC(=NOCc1cccc(C)c1)c1c(C)cc(=O)n(O)c1O	14.9 ×10⁻⁶ cm/s
15) CC(=NOCc1ccc(OCc2ccc3ccccc3c2)cc1)c1c(C)cc(=O)n(O)c1O	4.29 ×10⁻⁶ cm/s
16) CC(=NOCc1ccc(OCc2ccccc2)cc1)c1c(C)cc(=O)n(O)c1O	42.6 ×10⁻⁶ cm/s

----------
experiment: Solubility limit, turbidimetric assay; type: physicochemical; conditions: pH 7.4 (DMEM-F12 with 10% FBS); upper limit 200 µM
MEASURED ATTRIBUTE: Average Sol (solubility limit)

1) CC(=NOCc1ccc(OCc2ccccc2)cc1)c1c(C)cc(=O)n(O)c1O [Compound 1738]	167 µM
2) CC(=NOCc1cccc(F)c1)c1c(C)cc(=O)n(O)c1O [Compound 1618]	> 200 µM
3) CC(=NOCc1ccc(C(F)(F)F)cc1)c1c(C)cc(=O)n(O)c1O [Compound 1235]	> 200 µM
4) CC(=NOCc1ccc(Cl)cc1)c1c(C)cc(=O)n(O)c1O [Compound 1466]	> 200 µM
5) CC(=NOCc1ccc(C)cc1)c1c(C)cc(=O)n(O)c1O [Compound 1462]	> 200 µM

----------
experiment: Solubility limit, turbidimetric assay; assay type: physicochemical; settings: pH 5 (fed simulated intestinal fluid); upper limit 200 µM
# maps each entry to its Average Sol (solubility limit)
MEASURED ATTRIBUTE: Average Sol (solubility limit)

1) CC(=NOCc1ccc(OCc2ccc3ccccc3c2)cc1)c1c(C)cc(=O)n(O)c1O [Compound 1899]	> 200 µM
2) CC(=NOCc1ccc(OCc2ccc(C(C)(C)C)cc2)cc1)c1c(C)cc(=O)n(O)c1O [Compound 1808]	> 200 µM
3) CC(=NOCc1cccc(F)c1)c1c(C)cc(=O)n(O)c1O [Compound 1618]	> 200 µM
4) CC(=NOCc1ccc(OCc2ccccc2)cc1)c1c(C)cc(=O)n(O)c1O [Compound 1738]	> 200 µM
5) CC(=NOCc1ccccc1Br)c1c(C)cc(=O)n(O)c1O [Compound 1718]	> 200 µM
6) CC(=NOCc1cccc(Cl)c1)c1c(C)cc(=O)n(O)c1O [Compound 1719]	150 µM
7) CC(=NOCc1ccc(C)cc1)c1c(C)cc(=O)n(O)c1O [Compound 1462]	> 200 µM
8) CC(=NOCc1cccc(C)c1)c1c(C)cc(=O)n(O)c1O [Compound 1620]	> 200 µM
9) CC(=NOCc1ccc2ccccc2c1)c1c(C)cc(=O)n(O)c1O [Compound 1811]	50 µM
10) CC(=NOCc1ccc(F)cc1F)c1c(C)cc(=O)n(O)c1O [Compound 1464]	> 200 µM
11) CC(=NOCc1cc(F)ccc1F)c1c(C)cc(=O)n(O)c1O [Compound 1810]	167 µM
12) COc1ccc(CON=C(C)c2c(C)cc(=O)n(O)c2O)cc1OC [Compound 1669]	> 200 µM
13) CC(=NOCc1cccc(Br)c1)c1c(C)cc(=O)n(O)c1O [Compound 1621]	> 200 µM
14) CC(=NOCc1ccc(F)c(F)c1)c1c(C)cc(=O)n(O)c1O [Compound 1617]	> 200 µM
15) CC(=NOCc1ccc(Br)cc1)c1c(C)cc(=O)n(O)c1O [Compound 1717]	100 µM
16) CC(=NOCc1ccccc1C)c1c(C)cc(=O)n(O)c1O [Compound 1681]	> 200 µM
17) CC(=NOCc1ccc(Cl)cc1)c1c(C)cc(=O)n(O)c1O [Compound 1466]	> 200 µM
18) CC(=NOCc1ccc(C(F)(F)F)cc1)c1c(C)cc(=O)n(O)c1O [Compound 1235]	> 200 µM

----------
experiment: Parallel artificial membrane permeability assay (PAMPA); type: in vitro ADME; conditions: FeSSIF pH 5
# maps each entry to its Avg Papp (PAMPA)
MEASURED ATTRIBUTE: Avg Papp (PAMPA)

1) CC(=NOCc1ccc(F)c(F)c1)c1c(C)cc(=O)n(O)c1O [Compound 1617]	15.1 ×10⁻⁶ cm/s
2) CC(=NOCc1ccc(OCc2ccccc2)cc1)c1c(C)cc(=O)n(O)c1O [Compound 1738]	25.9 ×10⁻⁶ cm/s
3) CC(=NOCc1ccccc1C)c1c(C)cc(=O)n(O)c1O [Compound 1681]	30 ×10⁻⁶ cm/s
4) CC(=NOCc1cccc(Br)c1)c1c(C)cc(=O)n(O)c1O [Compound 1621]	26.3 ×10⁻⁶ cm/s
5) CC(=NOCc1cccc(Cl)c1)c1c(C)cc(=O)n(O)c1O [Compound 1719]	72.6 ×10⁻⁶ cm/s
6) CC(=NOCc1ccc(C)cc1)c1c(C)cc(=O)n(O)c1O [Compound 1462]	10.1 ×10⁻⁶ cm/s
7) CC(=NOCc1ccc(F)cc1F)c1c(C)cc(=O)n(O)c1O [Compound 1464]	36.2 ×10⁻⁶ cm/s
8) CC(=NOCc1ccccc1Br)c1c(C)cc(=O)n(O)c1O [Compound 1718]	43.6 ×10⁻⁶ cm/s
9) CC(=NOCc1ccc(C(F)(F)F)cc1)c1c(C)cc(=O)n(O)c1O [Compound 1235]	18 ×10⁻⁶ cm/s
10) CC(=NOCc1cccc(F)c1)c1c(C)cc(=O)n(O)c1O [Compound 1618]	16.4 ×10⁻⁶ cm/s
11) CC(=NOCc1cccc(C)c1)c1c(C)cc(=O)n(O)c1O [Compound 1620]	18.9 ×10⁻⁶ cm/s
12) COc1ccc(CON=C(C)c2c(C)cc(=O)n(O)c2O)cc1OC [Compound 1669]	56.7 ×10⁻⁶ cm/s
13) CC(=NOCc1ccc(Cl)cc1)c1c(C)cc(=O)n(O)c1O [Compound 1466]	20.4 ×10⁻⁶ cm/s
14) CC(=NOCc1ccc(OCc2ccc3ccccc3c2)cc1)c1c(C)cc(=O)n(O)c1O [Compound 1899]	5.61 ×10⁻⁶ cm/s
15) CC(=NOCc1cc(F)ccc1F)c1c(C)cc(=O)n(O)c1O [Compound 1810]	20.7 ×10⁻⁶ cm/s
